molecular target: Follistatin (Homo sapiens) (UniProt P19883); test: follistatin binders on small-molecule microarrays, primary screen, biochemical, small-molecule microarray, 635/667 nm fluorescence (AID 1132); settings: FST binding, 635 nm fluorescence, higher = more signal
Sequence (P19883 whole entry, looked up): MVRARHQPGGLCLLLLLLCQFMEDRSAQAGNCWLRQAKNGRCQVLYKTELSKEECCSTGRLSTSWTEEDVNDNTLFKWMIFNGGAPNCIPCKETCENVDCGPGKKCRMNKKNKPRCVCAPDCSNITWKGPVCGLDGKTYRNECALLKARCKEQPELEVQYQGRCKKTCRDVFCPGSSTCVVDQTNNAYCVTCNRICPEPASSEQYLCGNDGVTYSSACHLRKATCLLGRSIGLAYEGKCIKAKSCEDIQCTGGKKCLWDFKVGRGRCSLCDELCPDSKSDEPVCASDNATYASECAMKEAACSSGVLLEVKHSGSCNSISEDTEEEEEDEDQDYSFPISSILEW
Think of 0.5 as a floor: if composite z-score stands on it or above, it is Satisfied; beneath it, Not satisfied.

# example entries with known answers
MOLECULE: CN(C)CCCNC(=O)[C@@H]1c2ccccc2C(=O)N(Cc2ccccc2Cl)[C@H]1c1ccc(CO)cc1
CLASS LABEL: Not satisfied
//
MOLECULE: C=C(/C(=C/C[C@H](OC(C)=O)c1cccc(OCCO)c1)c1cnc2ccccc2c1)C(C)C
CLASS LABEL: Satisfied
//
MOLECULE: CC(CO)N1C(=O)[C@@H]2[C@H]3C(=O)OCC=C[C@H]3OC23C=CCN(Cc2ccccc2)C(=O)[C@@H]13 (stereo not given in full)
CLASS LABEL: Not satisfied

Could you now consider this next molecule?
Exercise: Would you say "COC(=O)[C@@]1(Cc2ccc(F)cc2)[C@H]2c3cc(C(=O)N(C)C)n(Cc4cc(F)cc5c4OCOC5)c3C[C@H]2CN1C(=O)c1ccccc1" shows composite z-score at minimum 0.5?
Solution: Satisfied

Values from PubChem BioAssay
